settings: 352.15 K; 100 kPa; Liquid; Vibrating tube method
± gives the expanded uncertainty stated by the source.
property name: mass density
Report as: number unit

input: Would you kindly share the measured mass density for `CC[N+](C)(C)CCCO.O=S(=O)([N-]S(=O)(=O)C(F)(F)F)C(F)(F)F` ?
output: 1416.7 ± 1.1 kg/m3

input: Tell me the measured mass density of `CCCC[N+](C)(C)CC.O=S(=O)([N-]S(=O)(=O)C(F)(F)F)C(F)(F)F` , please.
output: 1325 ± 1.1 kg/m3

input: What measured mass density goes with `CC[N+](C)(CCO)CCO.O=S(=O)([N-]S(=O)(=O)C(F)(F)F)C(F)(F)F` ?
output: 1467.7 ± 1.2 kg/m3

input: What does the data say about its mass density? Entry: `C[N+](CCO)(CCO)CCO.O=S(=O)([N-]S(=O)(=O)C(F)(F)F)C(F)(F)F`
output: 1518.8 ± 1.2 kg/m3

input: I would be grateful if you could share the reported mass density for `CC[N+](CCO)(CCO)CCO.O=S(=O)([N-]S(=O)(=O)C(F)(F)F)C(F)(F)F` .
output: 1483 ± 1.2 kg/m3

input: Item under review: `CCCC[N+](CCO)(CCO)CCO.O=S(=O)([N-]S(=O)(=O)C(F)(F)F)C(F)(F)F` . Reported mass density?
output: 1410.3 ± 1.1 kg/m3

input: Return reported mass density; argument: `CC[N+](C)(C)CCOC.O=S(=O)([N-]S(=O)(=O)C(F)(F)F)C(F)(F)F`
output: 1381.3 ± 1.1 kg/m3

====

What mass density was measured for each of the following?
details: 353.15 K; 100 kPa; Liquid; Vibrating tube method
I only need the number, in kg/m3, no unit after it.

input: Need mass density of `CCCC[N+](CCO)(CCO)CCO.O=S(=O)([N-]S(=O)(=O)C(F)(F)F)C(F)(F)F` , thanks.
output: 1409.4

input: Reported mass density, compound `CC[N+](C)(C)CCOC.O=S(=O)([N-]S(=O)(=O)C(F)(F)F)C(F)(F)F` : ____
output: 1380.4

input: // mass density lookup, key: `CC[N+](C)(CCO)CCO.O=S(=O)([N-]S(=O)(=O)C(F)(F)F)C(F)(F)F`
output: 1466.8

input: // lookup mass density for `CC[N+](C)(C)CCCO.O=S(=O)([N-]S(=O)(=O)C(F)(F)F)C(F)(F)F`
output: 1415.9

input: // mass density lookup, key: `C[N+](CCO)(CCO)CCO.O=S(=O)([N-]S(=O)(=O)C(F)(F)F)C(F)(F)F`
output: 1518

input: Given the entry `CC[N+](CCO)(CCO)CCO.O=S(=O)([N-]S(=O)(=O)C(F)(F)F)C(F)(F)F` , report its measured mass density.
output: 1482.1

input: Any idea what mass density was measured for `CCCC[N+](C)(C)CC.O=S(=O)([N-]S(=O)(=O)C(F)(F)F)C(F)(F)F` ?
output: 1324.2

====

Please go through the items and note down their mass density.
conditions: 328.15 K; 100 kPa; Liquid; Vibrating tube method
Dear colleague, please return just the value in kg/m3, with no unit written.

input: Look up mass density for this molecule: `CCCC[N+](CCO)(CCO)CCO.O=S(=O)([N-]S(=O)(=O)C(F)(F)F)C(F)(F)F`
output: 1430.6

input: Look up mass density: `CC[N+](C)(C)CCCO.O=S(=O)([N-]S(=O)(=O)C(F)(F)F)C(F)(F)F`
output: 1437.3

input: Given `CCCC[N+](C)(C)CC.O=S(=O)([N-]S(=O)(=O)C(F)(F)F)C(F)(F)F` , state its recorded mass density.
output: 1345.5

input: Recorded mass density of `CC[N+](C)(C)CCOC.O=S(=O)([N-]S(=O)(=O)C(F)(F)F)C(F)(F)F` , please.
output: 1403.1

input: Data request, read-out mass density, for `CC[N+](C)(CCO)CCO.O=S(=O)([N-]S(=O)(=O)C(F)(F)F)C(F)(F)F`
output: 1488.4

input: Please give the measured mass density for this molecule: `CC[N+](CCO)(CCO)CCO.O=S(=O)([N-]S(=O)(=O)C(F)(F)F)C(F)(F)F`
output: 1503.5

input: # get_value(readout='mass density', item= `C[N+](CCO)(CCO)CCO.O=S(=O)([N-]S(=O)(=O)C(F)(F)F)C(F)(F)F` )
output: 1539.8

====

I'd appreciate it if you could supply mass density values for the items below.
conditions: 339.15 K; 100 kPa; Liquid; Vibrating tube method
Enter your answer as a number in kg/m3; do not include the unit.

input: Query: mass density; subject: `CC[N+](C)(C)CCOC.O=S(=O)([N-]S(=O)(=O)C(F)(F)F)C(F)(F)F`
output: 1393.1

input: Could you tell me which mass density is on file for `CC[N+](C)(CCO)CCO.O=S(=O)([N-]S(=O)(=O)C(F)(F)F)C(F)(F)F` ?
output: 1478.9

input: Any idea what its mass density is? The compound is `CCCC[N+](CCO)(CCO)CCO.O=S(=O)([N-]S(=O)(=O)C(F)(F)F)C(F)(F)F`
output: 1421.2

input: Which measured mass density value corresponds to `CC[N+](C)(C)CCCO.O=S(=O)([N-]S(=O)(=O)C(F)(F)F)C(F)(F)F` ?
output: 1427.8

input: # mass density lookup, item `C[N+](CCO)(CCO)CCO.O=S(=O)([N-]S(=O)(=O)C(F)(F)F)C(F)(F)F`
output: 1530.1

input: Dear colleague, I am looking for the recorded mass density of the following compound: `CCCC[N+](C)(C)CC.O=S(=O)([N-]S(=O)(=O)C(F)(F)F)C(F)(F)F`
output: 1336

input: Which mass density reading was recorded for the compound `CC[N+](CCO)(CCO)CCO.O=S(=O)([N-]S(=O)(=O)C(F)(F)F)C(F)(F)F` ?
output: 1494

====

details: 303.15 K; 100 kPa; Liquid; Vibrating tube method
property name: mass density (kg/m3)
Answer with a number only, understood to be in kg/m3.

input: # input molecule: `CC[N+](C)(C)CCCO.O=S(=O)([N-]S(=O)(=O)C(F)(F)F)C(F)(F)F` ; wanted: its mass density
output: 1459

input: Look up mass density: `CC[N+](CCO)(CCO)CCO.O=S(=O)([N-]S(=O)(=O)C(F)(F)F)C(F)(F)F`
output: 1525.4

input: Endpoint output: mass density of `CCCC[N+](C)(C)CC.O=S(=O)([N-]S(=O)(=O)C(F)(F)F)C(F)(F)F` . Value?
output: 1367.2

input: Report mass density for `CC[N+](C)(CCO)CCO.O=S(=O)([N-]S(=O)(=O)C(F)(F)F)C(F)(F)F` please.
output: 1510.7

input: Fill in: mass density of `C[N+](CCO)(CCO)CCO.O=S(=O)([N-]S(=O)(=O)C(F)(F)F)C(F)(F)F` is ___
output: 1562.3

input: What does the data say about its mass density? Entry: `CC[N+](C)(C)CCOC.O=S(=O)([N-]S(=O)(=O)C(F)(F)F)C(F)(F)F`
output: 1426.2

input: Give its mass density value. Item: `CCCC[N+](CCO)(CCO)CCO.O=S(=O)([N-]S(=O)(=O)C(F)(F)F)C(F)(F)F`
output: 1452.3

====

details: 289.15 K; 100 kPa; Liquid; Vibrating tube method
property name: mass density (kg/m3)
Supply the numeric figure in kg/m3, leaving out any unit text.

input: Which mass density value is on record for `C[N+](CCO)(CCO)CCO.O=S(=O)([N-]S(=O)(=O)C(F)(F)F)C(F)(F)F` ?
output: 1574.9

input: Return reported mass density; argument: `CC[N+](C)(C)CCCO.O=S(=O)([N-]S(=O)(=O)C(F)(F)F)C(F)(F)F`
output: 1471.4

input: Form field: reported mass density of `CC[N+](CCO)(CCO)CCO.O=S(=O)([N-]S(=O)(=O)C(F)(F)F)C(F)(F)F`
output: 1537.6

input: Record request: mass density value, item `CCCC[N+](CCO)(CCO)CCO.O=S(=O)([N-]S(=O)(=O)C(F)(F)F)C(F)(F)F`
output: 1464.4

input: Fill blank: measured mass density of the compound `CC[N+](C)(CCO)CCO.O=S(=O)([N-]S(=O)(=O)C(F)(F)F)C(F)(F)F` is ____.
output: 1523.6

input: Fill in the blank: the reported mass density of `CC[N+](C)(C)CCOC.O=S(=O)([N-]S(=O)(=O)C(F)(F)F)C(F)(F)F` is ____.
output: 1439.5

input: Request the reported mass density associated with `CCCC[N+](C)(C)CC.O=S(=O)([N-]S(=O)(=O)C(F)(F)F)C(F)(F)F`
output: 1379.7

Reference source for all entries: the NIST ThermoML archive (doi:10.1021/acs.jced.9b00442)
